The values you see were collected from patent US20250382363A1.

target: T1, human a-Mesothelin (Acro Biosystems; MSN_H5223) (human, UniProt Q13421 296-580, limits assumed); assay: SPR, mesothelin immobilised, scFv analyte, 1:1 fit
T1 construct: Bought protein immobilised on the SPR chip; Printed as 'a-Mesothelin' but used as the antigen for the anti-MSLN scFvs; also called Human MSLN; MSLN
T1 sequence (Q13421 other isoform, or with tags, fused parts or gaps limits assumed): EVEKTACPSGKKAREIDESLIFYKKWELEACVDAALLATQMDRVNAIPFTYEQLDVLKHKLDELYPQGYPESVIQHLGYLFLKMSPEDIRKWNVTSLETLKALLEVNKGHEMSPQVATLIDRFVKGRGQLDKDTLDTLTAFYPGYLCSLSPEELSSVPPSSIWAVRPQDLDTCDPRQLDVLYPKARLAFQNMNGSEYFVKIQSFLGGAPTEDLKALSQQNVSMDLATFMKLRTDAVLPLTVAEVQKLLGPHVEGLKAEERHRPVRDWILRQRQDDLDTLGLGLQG
Each entry below carries its reported n-fold to wt.

- binder: "PRO2993 (scFv 54-21-H03-sc01_(P15A)) (scFv, PRO1922 variant; VH substitution, AHo numbering; also called PRO1922 P15A) scFv: DIQMTQSPSSLSASVGDRVTITCQASESIYSSLAWYQQKPGKAPKLLIYLASTLASGVPSRFSGSGSGTDFTLTISSLQPEDFATYYCQSTDYTTSTHRNSFGTGTKVTVLGGGGGSGGGGSGGGGSGGGGSEVQLVESGGGLVQAGGSLRLSCAASGFSFSTTYYMCWVRQAPGKGLEWIGCTNTASSVRTYYATWAKGRFTISRDNSKNTVYLQMNSLRAEDTAVYYCARDMGFADYALNLWGQGTLVTVSS"
  n-fold to wt, fold: 0.5
- binder: "PRO2937 (scFv 54-21-H03-sc01_(T101S, L144A, T146Q)) (scFv, PRO1922 variant; VH substitutions, AHo numbering; also called PRO1922 T101S-L144A-T146Q) scFv: DIQMTQSPSSLSASVGDRVTITCQASESIYSSLAWYQQKPGKAPKLLIYLASTLASGVPSRFSGSGSGTDFTLTISSLQPEDFATYYCQSTDYTTSTHRNSFGTGTKVTVLGGGGGSGGGGSGGGGSGGGGSEVQLVESGGGLVQPGGSLRLSCAASGFSFSTTYYMCWVRQAPGKGLEWIGCTNTASSVRTYYATWAKGRFTISRDNSKNTVYLQMNSLRAEDSAVYYCARDMGFADYALNLWGQGTAVQVSS"
  n-fold to wt, fold: 1.1
- binder: "PRO2991 (scFv 54-21-H03-sc01_(T101A)) (scFv, PRO1922 variant; VH substitution, AHo numbering; also called PRO1922 T101A) scFv: DIQMTQSPSSLSASVGDRVTITCQASESIYSSLAWYQQKPGKAPKLLIYLASTLASGVPSRFSGSGSGTDFTLTISSLQPEDFATYYCQSTDYTTSTHRNSFGTGTKVTVLGGGGGSGGGGSGGGGSGGGGSEVQLVESGGGLVQPGGSLRLSCAASGFSFSTTYYMCWVRQAPGKGLEWIGCTNTASSVRTYYATWAKGRFTISRDNSKNTVYLQMNSLRAEDAAVYYCARDMGFADYALNLWGQGTLVTVSS"
  n-fold to wt, fold: 1.6
